experiment: qHTS assay for small molecule activators of the p53 signaling pathway (AID 651743); conditions: HCT-116 p53RE-bla, beta-lactamase FRET ratio, 16 h; active compounds read high; note: % of control where 0% means no effect
Results filed as inconclusive are left out.
Value Type: activation (%)
One number for each entry, in %.

[[record]]
compound = "N#CCCCCC#N"
value_type = "activation"
experimental_result = -0.437

[[record]]
compound = "Nc1cccc2ccccc12"
value_type = "activation"
experimental_result = -3.1

[[record]]
compound = "CC12CC1(C)C(=O)N(c1cc(Cl)cc(Cl)c1)C2=O (stereo not given)"
value_type = "activation"
experimental_result = 3.14


Parameters: items (list). Returns: activation for each item.
1. Nc1ccc(Cc2ccc(N)c(Cl)c2)cc1Cl
2. COC(=O)Nc1cccc(OC(=O)Nc2cccc(C)c2)c1
3. O=[N+]([O-])c1cc(Cl)c(Cl)c(Cl)c1

Return:
-1.58
-2.65
-1.35

State the recorded activation for every item in the following list.
1. C(CCOCC1CO1)COCC1CO1 (stereo not given)
2. CCC(Cl)[N+](=O)[O-] (stereo not given)
3. O=NN1CCCCC1
4. CN(C)c1ccc(N(C)C)cc1
5. [O-][Cl+]O
6. Clc1ccc(C(Cl)(Cl)Cl)cc1Cl

Return:
15.9
-1.08
-2.94
1.85
0.903
0.791

Quick one: give me activation for each item below, same order please.
1. ClCc1ccccc1
2. O=[N+]([O-])c1ccc(O)c([N+](=O)[O-])c1
3. O=Cc1ccc(Cl)cc1Cl
4. O=[N+]([O-])c1ccccc1CCl
5. CC(=O)CCC(C)=O
6. Cc1ccc([N+](=O)[O-])cc1

Return:
[-2.55, 9.63, -1.2, -1.05, 0.727, -4.73]

List activation for every entry below, keeping the order given.
1. Brc1ccc(Oc2ccc(Br)cc2Br)c(Br)c1
2. CC(C)(Cl)[N+](=O)[O-]
3. c1ccoc1

Return:
2.43
3.96
1.16

I'm hoping you can list activation for every compound here, please.
1. S=c1[nH]c2ccccc2[nH]1
2. CC[N+](=O)[O-]

Return:
1. -4.45
2. -3.29

Batch request: activation for each of the following compounds.
1. C=C(Cl)CSC(=S)N(CC)CC
2. ClC(Cl)(Cl)C(Cl)(Cl)Cl

Return:
-1.91
-2.98

---

assay: NFAT Signaling Pathway (AID 444); conditions: Jurkat NFAT-bla M1, carbachol, beta-lactamase ratio, 5 h; at 7.69 µM (top of the series) unless noted;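 note: carbachol stimulus at about its EC50 of 1 µM final; % is set by controls: 0 for no effect and ±100 for the full control effect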
Records with an inconclusive call do not appear. Calls of active or inactive are those of the source. The call rests on the fitted dose curve; in most records, active means well fitted curve in either direction with a large enough effect (not every such curve was filed as active); inconclusive means small, poorly fitted or top-dose-only effect, or another doubt; inactive means flat fitted curve, though single readings scatter.
Lab note: assign the record to one of label 1 (active), label 0 (inactive)

[[record]]
molecule = "O=C(O)[C@H]1C2c3ccccc3C(c3ccccc32)[C@@H]1C(=O)NCC1CC1"
group_label = "label 0"


Enquiry: What call does the record list for Cc1cc[c]([Sb]2[O][C@H]([C@H](O)[C@H](O)C(=O)O)[C@@H](CO)[O]2)cc1 ?
Return: label 0

Enquiry: Also CO[C@H]1[C@H](O)[C@H](O[C@@H]2[C@H](Oc3cccc4c(O)c5c(=O)oc6ccc(C)c7c(=O)oc(c34)c5c67)O[C@@H](C)[C@H](O)[C@H]2O)O[C@@H](C)[C@@H]1O ?
Return: label 0
